Test system: Staphylococcus epidermidis
assayProcedure: standard microtiter assay, minimum inhibitory concentration
Format: cell-based
experimentalConditions: Test Organism 11, strain of Staphylococcus epidermidis
recordedMetric: minimum inhibitory concentration of antibiotic, Test Organism 11 (µg/mL)
The answer is to be given in µg/mL; state only the numeric part.

Sample CNCCNC(=O)C1NC(=O)C2NC(=O)C(NC(=O)C3NC(=O)C4NC(=O)C(NC(=O)C(NC)c5ccc(O)c(c5)Oc5cc(O)c(Cl)c4c5)C(O)c4ccc(c(Cl)c4)Oc4cc3cc(c4O)Oc3c(Cl)cc(cc3Cl)C2O)c2ccc(O)c(c2)-c2c(O)cc(O)cc21 (stereo not shown) — what was its minimum inhibitory concentration of antibiotic, Test Organism 11?
100

Origin of values: patent US4882313A
